# Measurement Target: T1, PUF4 RNA-binding domain (Saccharomyces cerevisiae, UniProt P25339 537-888)
# T1 sequence: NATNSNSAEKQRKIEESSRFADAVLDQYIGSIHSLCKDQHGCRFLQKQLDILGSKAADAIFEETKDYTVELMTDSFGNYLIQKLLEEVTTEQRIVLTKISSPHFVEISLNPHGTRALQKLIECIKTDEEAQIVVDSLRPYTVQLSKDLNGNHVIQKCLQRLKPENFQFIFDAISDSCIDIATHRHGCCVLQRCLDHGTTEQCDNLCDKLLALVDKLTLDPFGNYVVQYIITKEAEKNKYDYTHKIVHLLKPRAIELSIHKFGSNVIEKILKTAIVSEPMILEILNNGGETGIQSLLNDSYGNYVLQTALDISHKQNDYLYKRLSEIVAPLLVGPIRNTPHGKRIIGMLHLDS
# Measurement Protocol: Mg; RNA-MaP; 20 mM Na-HEPES pH 7.4, 30 mM KOAc, 0.75 mM MgCl2, 0.1% Tween-20, 5% glycerol, 0.1 mg/mL BSA, 2 mM DTT; 25 C; 0.0125-409.6 nM protein
# Experimental Context: tags: N-His6-TEV cleaved; C-SNAP kept, Cy3B-labelled; label: tethered on chip by stalled RNA polymerase
pKd: −log10 of the molar value.
Reported Property: pKd

binder="Id_ii_S2_P5E.4_K5.3_C5.2_[C-2A]_H5.3_A5.1_F5.1_T5.2 (ssRNA) RNA: UUUGAUUAAUAUGAUAUCGUUCUUUCUAUACACUUAUUAUAUUCUUUCUCGAUAUCAUAUUAAUCUUU" relational_operator== reported_value=6.17
binder="Ic_S4_P4E.1_K4.1_C4.1_H4.1_A4.1_[A6T]_[T7C]_F4.1_T4.1 (ssRNA) RNA: UUUGACAACUGAUCGUUCUUUCUUGUAUUCUAUUCUUUCUCGAUCAGUUGUCUUU" relational_operator== reported_value=8.63
binder="UCUCUUAUUAUAUAUUAAUUCUCUU (ssRNA) [Id_ii_S1_P4E.3_K4.2_C4.2_[C-2A]_H4.2_A4.1_F4.1_T4.2_[G10A]]" relational_operator== reported_value=7.59
binder="UCUCUUAGACACUAUAUUUCUCUU (ssRNA) [Id_ii_S1_P3E.4_K3.3_C3.2_[C-2A]_[T-1G]_H3.3_A3.1_F3.1_T3.2_[A10T]]" relational_operator=< reported_value=5.64
binder="UCUCUUUGUGUAUCAUCUCUU (ssRNA) [Ib_S1_P4E.1_K4.1_C4.1_H4.1_[A4G]_A4.1_F4.1_[T8C]_T4.1]" relational_operator== reported_value=7.52
binder="Ic_S2_P5E.1_K5.1_C5.1_H5.1_A5.1_[A7C]_F5.1_[T8G]_[T9G]_[A10T]_T5.1 (ssRNA) RNA: UUUGAUUAAUAUGAUAUCGUUCUUUCUUGUAUUCGGUUUCUUUCUCGAUAUCAUAUUAAUCUUU" relational_operator== reported_value=6.32
binder="UCUCUUACUAUAUAUUAUCUCUCUU (ssRNA) [Id_ii_S1_P4E.3_K4.2_C4.2_[C-2A]_[T-1C]_H4.2_A4.1_F4.1_T4.2_[G10T]_[T11C]]" relational_operator== reported_value=7.53
binder="Ic_S4_P5E.1_K5.1_C5.1_H5.1_A5.1_[T6G]_[A7C]_F5.1_[T8G]_[T9C]_[A10T]_T5.1 (ssRNA) RNA: UUUGACAACUGAUCGUUCUUUCUUGUAUGCGCUUUCUUUCUCGAUCAGUUGUCUUU" relational_operator== reported_value=6.27
binder="ACAAACAUACACUAUAUUACAAAC (ssRNA) [Id_ii_S3_P3E.4_K3.3_C3.2_[C-2A]_H3.3_A3.1_F3.1_T3.2_[A10T]]" relational_operator== reported_value=6.25
binder="UCUCUUUGUAAUUGAUCUCUU (ssRNA) [Ic_S1_P4E.1_K4.1_C4.1_H4.1_A4.1_[T5A]_[A6T]_F4.1_[T8G]_T4.1]" relational_operator== reported_value=6.15
binder="UCUCUUUGUACUACCCUCUCUU (ssRNA) [Ic_S1_P5E.1_K5.1_C5.1_H5.1_A5.1_[T5C]_F5.1_[T8C]_[T9C]_[A10C]_T5.1]" relational_operator== reported_value=6.18
binder="UCUCUUUGUAGCUGCUUCUCUU (ssRNA) [Ic_S1_P5E.1_K5.1_C5.1_H5.1_A5.1_[T5G]_[T6C]_[A7T]_F5.1_[T8G]_[T9C]_[A10T]_T5.1]" relational_operator== reported_value=5.67
binder="ACAAACUGUCCUAUAUUAACAAAC (ssRNA) [Ie_S3_P4E.1_K4.1_C4.1_H4.1_[+3CCT]_A4.1_F4.1_T4.1]" relational_operator== reported_value=7.22

Sourced from paper PMC9352680
